# Test system: UACC-257 melanoma
# method: NCI tumour cell line growth inhibition, 48 h
measure: TGI

O=C(NCCc1ccccc1)c1c(O)c2ccccc2[nH]c1=O ... > 100 µM
CN(C)CCn1c(=O)c2ccc3c4c(nn3CCN(C)C)c3cc(O)ccc3n(c1=O)c24 ... 1.16 µM
O=C(CCCN1CCC2(CC1)CC(=O)N(N1CCCCCC1)C2=O)c1ccc(F)cc1 ... > 100 µM

TGI in this record for `C=C1C(=O)O[C@H]2[C@H]3O[C@@H](C[C@@H]12)[C@@]1(C)CC[C@H](O1)C(C)=CCC[C@H]3C` : 3.59 µM
